# METHOD: Selectivity ratio of IC50 for cytotoxicity against human L02 cells to IC50 for antiproliferative activity against human K562 cells
# Format: toxicity, cell-based
# ASSAY_CONTEXT: read-out: Ratio IC50
PARAMETER_MEASURED: selectivity ratio

>>> test_result("C=C1C(=O)[C@]23[C@H](OC(=O)CCC(=O)OCCCCCCOc4ccc(-c5cc(=S)ss5)cc4)[C@H]1CC[C@H]2[C@@]12CO[C@@]3(O)[C@@H](O)[C@@H]1C(C)(C)CC[C@@H]2OC(C)=O")
20

----------
# METHOD: Selectivity ratio of IC50 for cytotoxicity against human PBMC cells to IC50 for antiproliferative activity against human HepG2 cells
# Type: toxicity, cell-based
# ASSAY_CONTEXT: read-out: Ratio IC50
PARAMETER_MEASURED: selectivity ratio

>>> test_result("C=C1C(=O)[C@]23[C@H](OC(=O)CCC(=O)OCCCCCCOc4ccc(-c5cc(=S)ss5)cc4)[C@H]1CC[C@H]2[C@@]12CO[C@@]3(O)[C@@H](O)[C@@H]1C(C)(C)CC[C@@H]2OC(C)=O")
20
